Every entry's value here was drawn from ChEMBL document CHEMBL1201862.

Test system: HOP-62
Test: NCI tumour cell line growth inhibition, 48 h
Active and inactive are the calls of the source. No stated cut-off is given here; in the data, active = GI50 up to about 1.1 µM and inactive = higher.
Respond using exactly one of the listed classes: active, inactive

Worked examples follow.
{"molecule": "CCCN(CCCCN1C(=O)c2ccccc2C1=O)CC1COc2ccccc2O1 (centres undefined)", "labelClass": "inactive"}
{"molecule": "COc1ccc(C2C3=C(COC3=O)Oc3cc4c(cc32)OCO4)cc1OC (centres undefined)", "labelClass": "inactive"}
{"molecule": "O=C(Nc1ccc(C2=NCCN2)cc1)c1cncc(C(=O)Nc2ccc(C3=NCCN3)cc2)c1", "labelClass": "inactive"}

With those in mind, consider the next molecule.
Q: In this assay, the call recorded for `COc1ccc2[nH]c3c(C)c4ccnc(NCCCN(C)CCCN)c4c(C)c3c2c1` was what?
A: active

* * *

Test system: IGROV-1
Assay: NCI tumour cell line growth inhibition, 48 h
Active and inactive are the calls of the source. Rule as the data show it: active = GI50 up to about 1.1 µM and inactive = higher.
Respond using exactly one of the listed classes: YES = active, NO = inactive

Worked examples follow.
{"molecule": "CN(C)c1ccc(/C=C/C(=O)c2ccccc2)cc1Br", "labelClass": "NO"}
{"molecule": "c1ccc(CCCN2C3CCC2CN(CCOC(c2ccccc2)c2ccccc2)C3)cc1", "labelClass": "NO"}
{"molecule": "c1ccc2sc(SSSc3nc4ccccc4s3)nc2c1", "labelClass": "NO"}
{"molecule": "C(=C\\c1cccc(/C=C/c2ccccn2)n1)/c1ccccn1", "labelClass": "NO"}
{"molecule": "CCOC(=O)NC(=O)c1cn(C2CCCCC2)c(=O)[nH]c1=O", "labelClass": "NO"}
{"molecule": "O=C(c1cc(O)ccc1O)c1ccccc1C(Cl)(Cl)Cl", "labelClass": "NO"}
{"molecule": "O=C(c1ccccc1)N1CCC(Nc2nccs2)O1 (configuration not stated)", "labelClass": "NO"}
{"molecule": "CCCC(=O)OC[n+]1ccc2c(C)c3[nH]c4ccc(OC)cc4c3c(C)c2c1", "labelClass": "YES"}
{"molecule": "O=[N+]([O-])/C(C(Cl)=C(Cl)Cl)=C(/Cl)SCc1ccccc1", "labelClass": "NO"}
{"molecule": "OCC(O)C(O)C(O)c1nnn[nH]1 (configuration not stated)", "labelClass": "NO"}

Q: In this assay, the call recorded for `CCN(CC)c1ccc(/N=N/c2ccc([N+](=O)[O-])cc2OC(=O)/C=C/c2ccccc2)c(OC(=O)/C=C/c2ccccc2)c1` was what?
A: NO

Q: What about `N#Cc1nc(CCc2nc(C#N)c(N)o2)oc1N` ?
A: NO

Q: What about `CN(C)CCNC(=O)c1cc([N+](=O)[O-])ccn1` ?
A: NO

Q: What about Cc1ccc(S(=O)(=O)OC2C(C3COC(C)(C)O3)OC3OC(C)(C)OC32)cc1 (configuration not stated) ?
A: NO

Q: What about C[C@H]1[C@@H]2C[C@@H]3O[C@@]34[C@H]3CCC5Cc6nc7c(nc6C[C@@]5(C)[C@]3(O)CC(=O)[C@@]24CO[C@]12OC(C)(C)C[C@@H]2O)CC1CC[C@@H]2C3=C[C@H]4O[C@@]5(OC(C)(CO)C[C@@H]5O)[C@H](C)[C@@]4(O)[C@]3(C)[C@@H](O)CC2[C@]1(C)C7 (some centres not stated) ?
A: YES

Q: What about CC1CC(Nc2ccc(Br)cc2)N(C(=O)c2ccc(Br)cc2)O1 (configuration not stated) ?
A: NO

Q: What about `C[C@H](CSC(=O)c1ccccc1)C(=O)N1c2ccccc2C[C@H]1C(=O)O` ?
A: NO
